Measured values drawn from ChEMBL document CHEMBL1777684 for this set.

zone of inhibition at 100 µg/mL overview
Tested on: Escherichia coli
run.description: Antibacterial activity against Escherichia coli NCIM 2065 at 100 ug/ml after 24 hrs by agar disc diffusion method
Format: functional
test.conditions: NCIM 2065, 24 h, read-out: IZ

- smiles.str: "CN(C)c1ccc(/C=N/Nc2cc(N/N=C/c3ccc(N(C)C)cc3)on2)cc1"
  target.or.system: "Escherichia coli"
  result.unit: "mm"
  zone of inhibition at 100 µg/mL: 10
- smiles.str: "CN(C)c1ccc(-c2nnc(Cc3nnc(-c4ccc(N(C)C)cc4)o3)o2)cc1"
  target.or.system: "Escherichia coli"
  result.unit: "mm"
  zone of inhibition at 100 µg/mL: 10
- smiles.str: "COc1ccc(-c2nnc(Cc3nnc(-c4ccc(OC)c(OC)c4)o3)o2)cc1OC"
  target.or.system: "Escherichia coli"
  result.unit: "mm"
  zone of inhibition at 100 µg/mL: 10
